Assignment: determine reported MIC for the given compounds.
# System: Staphylococcus aureus
# Run Description: Antibacterial activity against methicillin-resistant Staphylococcus aureus ATCC 3392 assessed as inhibition of bacterial growth incubated for 24 hrs by broth dilution method
# Type: functional
Give bare numbers, in µg/mL.

INSERT INTO assay_data (line_notation, readout_units, value) VALUES
  ('O=C(c1c(O)cc(O)cc1O)C1CC1', 'µg/mL', 32),
  ('CCCCCCCC(=O)c1c(O)cc(O)c(C(=O)CCCCCCC)c1O', 'µg/mL', 2),
  ('O=C(c1c(O)cc(O)c(C(=O)C2CCCCC2)c1O)C1CCCCC1', 'µg/mL', 0.5),
  ('CCCCC(=O)c1c(O)cc(O)c(C(=O)CCCC)c1O', 'µg/mL', 2);

Need MIC for each of these compounds.
1. CC(C)CCC(=O)c1c(O)cc(O)c(C(=O)CCC(C)C)c1O
2. CCCCCCCCCC(=O)c1c(O)cc(O)cc1O
3. O=C(c1c(O)cc(O)cc1O)C1CCC1
4. O=C(c1c(O)cc(O)c(C(=O)C2CCCC2)c1O)C1CCCC1

1. 0.5
2. 32
3. 32
4. 1

List MIC for every entry below, keeping the order given.
1. CCCCCCCCC(=O)c1c(O)cc(O)cc1O
2. CCCCCC(=O)c1c(O)cc(O)cc1O
3. O=C(c1c(O)cc(O)c(C(=O)C2CC2)c1O)C1CC1
4. CCCCCCCC(=O)c1c(O)cc(O)cc1O
5. CCCCC(=O)c1c(O)cc(O)c(C(C)=O)c1O

[8, 32, 8, 8, 8]

====

# System: Staphylococcus aureus
# Run Description: Antibacterial activity against methicillin-resistant Staphylococcus aureus ATCC 3392 assessed as inhibition of bacterial growth incubated for 24 hrs by broth dilution method
# Assay type: functional
Quantity Name: MIC (µg/mL)
Give bare numbers, in µg/mL.

INSERT INTO assay_data (compound, quantity_name, value) VALUES
  ('CC(=O)c1c(O)cc(O)c(C(C)=O)c1O', 'MIC', 4);

For every item in the list below, what is its measured MIC?
1. CCCC(=O)c1c(O)cc(O)c(C(=O)CCC)c1O
2. CCC(C)C(=O)c1c(O)cc(O)c(C(=O)C(C)CC)c1O (stereo not given)
3. CCC(=O)c1c(O)cc(O)c(C(=O)CC)c1O
4. O=C(Cc1ccccc1)c1c(O)cc(O)c(C(=O)Cc2ccccc2)c1O
5. CCCCCC(=O)c1c(O)cc(O)c(C(=O)CCCCC)c1O

4
4
8
1
0.5

Hi there! I need MIC for each item below, if you can.
1. O=C(c1c(O)cc(O)cc1O)C1CCCC1
2. CC(C)(C)CC(=O)c1c(O)cc(O)c(C(=O)CC(C)(C)C)c1O
3. CCCCCCC(=O)c1c(O)cc(O)c(C(=O)CCCCCC)c1O
4. CCCCC(=O)c1c(O)cc(O)c(C(=O)C(C)C)c1O
5. CC(C)C(=O)c1c(O)cc(O)c(C(=O)C(C)C)c1O
6. CCCCC(=O)c1c(O)cc(O)c(C(=O)C2CCCCC2)c1O

1: 64; 2: 0.5; 3: 1; 4: 2; 5: 4; 6: 0.5

====

Give measured MIC for each item. Keep answers brief.
# System: Pseudomonas aeruginosa
# Run Description: Antibacterial activity against Pseudomonas aeruginosa […] assessed as inhibition of bacterial growth incubated for 24 hrs by broth dilution method
# Assay type: functional

Some molecules with recorded MIC:
INSERT INTO measurements (line_notation, value) VALUES
  ('CCCCC(=O)c1c(O)cc(O)c(C(=O)CCCC)c1O', '> 64 µg/mL'),
  ('CCCCC(=O)c1c(O)cc(O)c(C(=O)CC(C)(C)C)c1O', '> 64 µg/mL'),
  ('CCCCCCCC(=O)c1c(O)cc(O)c(C(=O)CCCCCCC)c1O', '> 64 µg/mL');

Provide reported MIC for each item, in the same order as listed.
1. CC(C)CCC(=O)c1c(O)cc(O)c(C(=O)CCC(C)C)c1O
2. CN[C@H](CC(C)C)C(=O)N[C@H]1C(=O)N[C@@H](CC(N)=O)C(=O)N[C@H]2C(=O)N[C@H]3C(=O)N[C@H](C(=O)N[C@H](C(=O)O)c4cc(O)cc(O)c4-c4cc3ccc4O)[C@H](O)c3ccc(c(Cl)c3)Oc3cc2cc(c3O[C@@H]2O[C@H](CO)[C@@H](O)[C@H](O)[C@H]2O[C@H]2C[C@](C)(N)[C@H](O)[C@H](C)O2)Oc2ccc(cc2Cl)[C@H]1O
3. CC(C)(C)CC(=O)c1c(O)cc(O)c(C(=O)CC(C)(C)C)c1O
4. O=C(c1c(O)cc(O)c(C(=O)C2CCC2)c1O)C1CCC1

> 64 µg/mL
> 64 µg/mL
> 64 µg/mL
> 64 µg/mL

====

# System: Staphylococcus aureus
# Run Description: Antibacterial activity against methicillin-resistant Staphylococcus aureus ATCC 3392 assessed as inhibition of bacterial growth incubated for 24 hrs by broth dilution method
# Format: functional
Record form. Attribute: MIC. Fill in for each entry.

# example entries with known answers
INSERT INTO measurements (line_notation, value) VALUES
  ('O=Cc1c(O)cc(O)cc1O', '> 64 µg/mL'),
  ('CCC(=O)c1c(O)cc(O)cc1O', '> 64 µg/mL'),
  ('COc1cc(OC)c(C(C)=O)c(O)c1C(C)=O', '> 64 µg/mL'),
  ('CC(C)(C)CC(=O)c1c(O)cc(O)cc1O', '> 64 µg/mL'),
  ('O=Cc1c(O)cc(O)c(C=O)c1O', '> 64 µg/mL'),
  ('COc1cc(O)c(C(C)=O)c(O)c1C(C)=O', '> 64 µg/mL');

Could you tell me MIC for each of these compounds? They are listed below.
1. CCCCCCCCCCCCCCCC(=O)c1c(O)cc(O)c(C(=O)CCCCCCCCCCCCCCC)c1O
2. CCCCC(=O)c1c(O)cc(O)cc1O
3. O=C(c1c(O)cc(O)c(C(=O)C2CCC2)c1O)C1CCC1
4. COc1cc(OC)c(C(C)=O)c(OC)c1C(C)=O

["> 64 µg/mL", "> 64 µg/mL", "2 µg/mL", "> 64 µg/mL"]

Batch request: MIC per item, same order as input.
1. CCCCC(=O)c1c(O)cc(O)c(C(=O)CCC(C)C)c1O
2. CCCCC(=O)c1c(O)cc(O)c(C(=O)CC(C)(C)C)c1O
3. CC(C)CCC(=O)c1c(O)cc(O)cc1O

["0.5 µg/mL", "0.5 µg/mL", "64 µg/mL"]

====

# Tested on: Staphylococcus aureus
# Run Description: Antibacterial activity against methicillin-resistant Staphylococcus aureus ATCC 3392 assessed as inhibition of bacterial growth incubated for 24 hrs by broth dilution method
# Format: functional
For each of the molecules below, state its MIC.
Give bare numbers, in µg/mL.

Known MIC results, listed for orientation:
INSERT INTO results (molecule, readout_units, value) VALUES
  ('CC(C)C(=O)c1c(O)cc(O)cc1O', 'µg/mL', 64),
  ('CCCCCCC(=O)c1c(O)cc(O)cc1O', 'µg/mL', 16),
  ('CCCCCCCCCC(=O)c1c(O)cc(O)c(C(=O)CCCCCCCCC)c1O', 'µg/mL', 8),
  ('CCCCCCCCC(=O)c1c(O)cc(O)c(C(=O)CCCCCCCC)c1O', 'µg/mL', 4),
  ('O=C(O)c1cn(C2CC2)c2cc(N3CCNCC3)c(F)cc2c1=O', 'µg/mL', 0.25);

# input for lookup
Please report the recorded MIC for CCCCC(=O)c1c(O)cc(O)c(C(=O)C(C)CC)c1O (stereo not drawn) .
1

Origin of the recorded values: ChEMBL document CHEMBL5634137
